System: CAKI-1 renal
experiment-description: NCI-60 one-dose screen, 48 h (100 = growth as untreated, 0 = no growth, -100 = all killed)
applied-conditions: 10 µM
About 83,000 compounds went through this panel and 20% of them were active in at least one assay; those are over-represented in the sample as a whole. Calls of active or inactive are those of the source. The calls were made as follows: active = growth percent below 10; inactive = the rest.
measured-attribute: growth

>  <compound>
CNC(=O)c1cccc(N2CCc3c2ccc(NC(=O)Nc2ccc(N4CCN(C)CC4)c(C(F)(F)F)c2)c3F)c1

>  <system-under-test>
CAKI-1 renal

>  <reported>
-81.5% (active)

$$$$
>  <compound>
CCCCCCCCCCCCCCCCCCCC(=O)NCCc1c[nH]c2ccc(O)cc12

>  <system-under-test>
CAKI-1 renal

>  <reported>
105% (inactive)

$$$$
>  <compound>
C=C1CCC2C3(C)COC(c4cccc(F)c4)OC3CCC2(C)C1CC(O)C1=CCOC1=O (centres undefined)

>  <system-under-test>
CAKI-1 renal

>  <reported>
74.7% (inactive)

$$$$
>  <compound>
O=C(CSc1nnc(-c2c[nH]c3ccccc23)n1-c1ccccc1)c1ccccc1

>  <system-under-test>
CAKI-1 renal

>  <reported>
53.2% (inactive)

$$$$
>  <compound>
O=C(N/C(=C1/OCCN1Cc1ccccc1)[P+](c1ccccc1)(c1ccccc1)c1ccccc1)c1ccccc1

>  <system-under-test>
CAKI-1 renal

>  <reported>
79.5% (inactive)

$$$$
>  <compound>
COc1ccc(-c2cc(C(=O)N=Nc3c(O)[nH]c4ccc(F)cc34)c3ccccc3n2)cc1

>  <system-under-test>
CAKI-1 renal

>  <reported>
87.8% (inactive)

$$$$
>  <compound>
COc1ccc(-c2nc(S(=O)(=O)c3ccc(C)cc3)c(S(C)(=O)=O)o2)cc1

>  <system-under-test>
CAKI-1 renal

>  <reported>
-100% (active)

$$$$
>  <compound>
COc1cc2c3c(n(CCCN4CCOCC4)c(=O)c2cc1OC)-c1nc2c(cc1C3=O)OCO2

>  <system-under-test>
CAKI-1 renal

>  <reported>
6.77% (active)

$$$$
>  <compound>
Cc1ccc(F)cc1N/C=c1\s/c(=C(\C#N)C(=O)Nc2ccccc2)n(-c2ccccc2)c1=O

>  <system-under-test>
CAKI-1 renal

>  <reported>
19.8% (inactive)

$$$$
>  <compound>
Cc1ccc(C(=O)N/C(=C2/OCCN2C)[P+](c2ccccc2)(c2ccccc2)c2ccccc2)cc1

>  <system-under-test>
CAKI-1 renal

>  <reported>
102% (inactive)

$$$$
>  <compound>
COc1ccc(C(C)=C(c2ccc(OCCCN(C)C)cc2)c2ccc(OCCCN(C)C)cc2)cc1

>  <system-under-test>
CAKI-1 renal

>  <reported>
-100% (active)

$$$$
>  <compound>
CC(=O)NS(=O)(=O)c1ccc(NC(=O)CSC2=NC(c3ccccc3)C(C(C)=O)=C(C)N2)cc1 (centres undefined)

>  <system-under-test>
CAKI-1 renal

>  <reported>
99.4% (inactive)

$$$$
>  <compound>
Cc1cccc2cc(-c3cc(-c4ccccc4)nc(=O)[nH]3)c(Cl)nc12

>  <system-under-test>
CAKI-1 renal

>  <reported>
87.2% (inactive)

$$$$
>  <compound>
O=c1[nH]c2ccccc2cc1CSc1ccc(Nc2nccc(-c3ccc4c(c3)OCO4)n2)cc1

>  <system-under-test>
CAKI-1 renal

>  <reported>
98% (inactive)

$$$$
>  <compound>
CN1CCN(c2ccc(C(=O)/C=C/c3ccc(C#N)cc3)cc2)CC1

>  <system-under-test>
CAKI-1 renal

>  <reported>
63.8% (inactive)

$$$$
>  <compound>
CN1C(=O)N(C)C2SC(N/N=C/c3ccccc3F)=NC21 (centres undefined)

>  <system-under-test>
CAKI-1 renal

>  <reported>
67.4% (inactive)

$$$$
>  <compound>
Cc1ccc(CSc2nc(-c3ccc(F)cc3)c(C#N)c(=O)[nH]2)cc1

>  <system-under-test>
CAKI-1 renal

>  <reported>
92.5% (inactive)

$$$$
>  <compound>
Nc1cccnc1/C=N/NC(=S)NCCNC(=O)c1ccc(-n2nc(-c3ccccc3O)nc2-c2ccccc2O)cc1

>  <system-under-test>
CAKI-1 renal

>  <reported>
4.97% (active)

$$$$
>  <compound>
COc1ccc(C2NC(=S)NC(C)=C2C(=O)OC(C)C)cc1OC (centres undefined)

>  <system-under-test>
CAKI-1 renal

>  <reported>
97.4% (inactive)

$$$$

Origin of values: PubChem BioAssay (NCI)
